Hey, just so you know, these numbers are from patent EP4725969A1.

# key: entry, value: koff
# tested target: T1, recombinant human HER2 extracellular domain protein (human, UniProt P04626 23-652)
# T1 construct: range 23-652; Range is printed for the immunogen/panning protein; also called ErbB2; recombinant HER2 protein
# assay name: BLI, Protein A capture
Please give a number only; it is taken to be in s⁻¹.

Q: So what's the measured koff for this one? 2126-Hu-H55 (antibody, IgG1, name in Kabat numbering, V domains shown, IgG1/Cκ) VH: QVQLVQSGSELKKPGASVKVSCKASGYTFTDYSMHWVRQAPGQGLEWMGWINTETGEPTYADDFKGRFVFSLDTSVSTAYLQISSLKAEDTAVYFCVRVGRYAYAMDYWGQGTTVTVSS VL: DIQMTQSPSSLSASVGDRVTITCKASQDVYTAVAWYQQKPGKAPKLLINSASYRYTGVPSRFSGSGSGTDFTLTISSLQPEDFATYYCQQHYSTPPTFGGGTKVEIK
Ans: 0.00452
